Hi there, I'd appreciate the recorded IC50 for every entry that follows.
Molecular target: Farnesyl-protein transferase (Ftase) from bovine brain (Bos taurus, UniProt P29702+P49355)
Construct: Farnesyl-protein transferase (Ftase) from bovine brain was chromatographed on DEAE-Sephacel
Assay: In vitro inhibition of ras farnesyl transferase
Conditions: Ras-CVLS 3.5 μM, 0.25 μM [3H]FPP, partially purified bovine brain enzyme; read-out: IC50 (concentration of compound which gives 50% inhibition of FTase under the described assay conditions)
Reply with the number, then its unit.

Guide cases for IC50, answers given:
CC[C@H](C)[C@H](NC[C@@H](N)CS)C(=O)NCCc1cccc(Cl)c1	63 nM
CC[C@H](C)[C@H](NC[C@@H](N)CS)C(=O)Nc1ccccc1	63 nM
CC[C@H](C)[C@H](NC[C@@H](N)CS)C(=O)NCc1cccc(Cl)c1Cl	25 nM

Attention now shifts to the item below.
// sample CC[C@H](C)[C@H](NC[C@@H](N)CS)C(=O)Nc1cccc(C)c1C , its IC50 was 35 nM
